# credit: PubChem BioAssay AID1159580

ASSAY PROCEDURE: chemical genetic growth profiling, strain panel (AID 1159580);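 note: tested at 20 µM; growth read once vehicle control cultures reached saturation at 30 °C; 1 = growth at the plate median or of vehicle wells; lower values mean less growth of the strain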
EXPERIMENTAL CONTEXT: S. cerevisiae deletion strains, growth OD, locus YER133W, strain GLC7, hits give low values
In all, about 5,500 compounds went through this assay and about 2,000 (36%) were called active. About 18% were inconclusive and are not listed. The list shows a part of the results.
Threshold 0.9. normalized growth below it: met. normalized growth at it or above: not met.

A selection of reference data follows.
>>> df
                           smiles_structure  qualitative_label
0            NC(=NC(=O)c1ccc(Cl)cc1)c1cccs1                met
1  COc1cc(C(=O)Oc2c(Cl)cc(Cl)cc2C=Nc2ccc([N+](=O)[O-])cc2C#N)cc(OC)c1OC                met
2  Cc1cc(C(=O)O/N=C(/N)c2ccc([N+](=O)[O-])o2)no1            not met

Determine if `CCOC(=O)c1c(N=Cc2cc(Br)c(Br)cc2O)sc2c1CCCC2` shows normalized growth strictly lower than 0.9.
met

====

ASSAY PROCEDURE: chemical genetic growth profiling, strain panel (AID 1159580)
EXPERIMENTAL CONTEXT: S. cerevisiae deletion strains, growth OD, locus YOR083W, strain WHI5 (second series), hits give low values
The campaign covered roughly 5,500 compounds. About 2,000 (36%) were called active. Not shown: some 18% with an inconclusive outcome. Some of the results follow.
Catalogue of compounds with associated normalized growth
Just the number, please, no unit after it.

Just so you know, measured normalized growth for `NC1CCN(c2cccc(Cl)n2)CC1` came out at 0.991

Reported normalized growth of `CC(N)=NCCC[C@H](N)C(=O)O` : 1.02

Reported normalized growth of CCCNC(C)C(=O)Nc1ccccc1C (centres undefined) : 1.01

// normalized growth lookup, compound = CCCN(CCC)C(=O)C(CCC(=O)O)NC(=O)c1ccccc1 (centres undefined) , result: 1.01

====

Recorded measurements of normalized growth, one per entry
ASSAY PROCEDURE: chemical genetic growth profiling, strain panel (AID 1159580);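 note: tested at 20 µM; growth read once vehicle control cultures reached saturation at 30 °C; 1 = growth at the plate median or of vehicle wells; lower values mean less growth of the strain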
EXPERIMENTAL CONTEXT: S. cerevisiae deletion strains, growth OD, locus YMR125W, strain sto1, hits give low values
Among all 5,500 compounds or so, about 2,000 (36%) were called active. Not shown: some 18% with an inconclusive outcome. Some of the results follow.
Response field accepts a number only; no unit should be typed.

In [3]: df
Out[3]:
                                   molecule  reported_property  reported_measurement
0                              NCCCCN=C(N)N  normalized growth                  1.03
1  O=C(NC(Cc1cc(=O)[nH]c2ccccc12)C(=O)O)c1ccc(Cl)cc1 (stereo not drawn)  normalized growth                  1.01

Lab note: next molecule to report on.
Input `COc1ccc(/C=C/C(=O)O)cc1OC` . Output normalized growth: 0.974

====

ASSAY PROCEDURE: chemical genetic growth profiling, strain panel (AID 1159580);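 note: tested at 20 µM; growth read once vehicle control cultures reached saturation at 30 °C; 1 = growth at the plate median or of vehicle wells; lower values mean less growth of the strain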
EXPERIMENTAL CONTEXT: S. cerevisiae deletion strains, growth OD, locus YOR069W, strain VPS5, hits give low values
Screen size: about 5,500 compounds; about 2,000 (36%) were called active. Another 18% or so got no clear call; they are omitted. This is one part of the list.
REPORTED PROPERTY: normalized growth
Quick one: just the number, no unit, thanks!

Study these solved cases before continuing.
COMPOUND	REPORTED MEASUREMENT
CC1=C(/C=C/C(C)=C/C=C/C(C)=C/C(=O)O)C(C)(C)CCC1	1.01
CCOP(=S)(OCC)SCSP(=S)(OCC)OCC	0.995
Nc1nccs1	0.99
CC1=C(/C=C/C(C)=C/C=C/C(C)=C\C(=O)O)C(C)(C)CCC1	1.01
O=C1N=C(O)CN1/N=C\c1ccc(-c2ccc([N+](=O)[O-])cc2)o1	1.01
COc1cc(/C=C/C(=O)O)cc(OC)c1OC	1.01
O=C1CN(/N=C\c2ccc([N+](=O)[O-])o2)C(=O)N1	0.999
CC1=C(/C=C/C(C)=C/C=C/C(C)=C/CO)C(C)(C)CCC1	1.01
Nc1nc2ncc(CNc3ccc(C(=O)N[C@@H](CCC(=O)O)C(=O)O)cc3)nc2c(=O)[nH]1	0.981
CC1(C)CC2C1CCC1(C)OC1CCC2(C)O (configuration not stated)	1.02

normalized growth reading for `c1ccc2[nH]c(-c3cscn3)nc2c1` : 1

Input CC1(C)C2CC(=O)O[C@@]3(C)C4=CC(=O)O[C@@H](c5ccoc5)[C@]4(C)CCC3[C@@]2(C)C=C[C@H]1O (some centres not stated) . Output normalized growth: 1

// sample `Cc1ccc(C(C)C)cc2c(C)ccc1-2` , its normalized growth was 1

Sure, the documented normalized growth for `NC(=O)c1cnccn1` is 1.01

Measured normalized growth, CC(=O)C1=C(O)C2C3c4c[nH]c5cccc(c45)CC3C(C)(C)N2C1=O (configuration not stated) : 0.993

Entry CC1CC2C(C(O)CC3(C)C2CCC3(O)C(=O)COC(=O)CCC(=O)O)C2(C)C=CC(=O)C=C12 (configuration not stated) , normalized growth reported as 1

Entry CC[C@@]1(C2O[C@@H](C3O[C@@](O)(CC)[C@H](C)C[C@@H]3C)C[C@@H]2C)CC[C@H]([C@]2(C)CCC3(C[C@H](O)[C@@H](C)[C@@H]([C@H](C)[C@@H](OC)[C@H](C)C(=O)O)O3)O2)O1 (some centres not stated) , normalized growth reported as 1

// field: normalized growth; key: `O=C(O)CCC(=O)c1ccc(-c2ccccc2)cc1` ; value = 0.987

What the record says about Nc1nc(N)c2nc(CNc3ccc(C(=O)NC(CCC(=O)O)C(=O)O)cc3)cnc2n1 (configuration not stated) : normalized growth is 0.992

====

ASSAY PROCEDURE: chemical genetic growth profiling, strain panel (AID 1159580);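 note: tested at 20 µM; growth read once vehicle control cultures reached saturation at 30 °C; 1 = growth at the plate median or of vehicle wells; lower values mean less growth of the strain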
EXPERIMENTAL CONTEXT: S. cerevisiae deletion strains, growth OD, locus YLR113W, strain HOG1, hits give low values
In all, about 5,500 compounds went through this assay and about 2,000 (36%) were called active. About 18% were inconclusive and are not listed. This is one part of the list.
REPORTED PROPERTY: normalized growth
Please state the value as a number alone, without comment.

>>> df
                                   compound  reported_measurement
0  CC1=C(/C=C/C(C)=C/C=C/C(C)=C/C=C/C=C(C)/C=C/C=C(C)/C=C/C2=C(C)CCCC2(C)C)C(C)(C)CCC1                  1.02
1           C[C@](N)(Cc1ccc(O)c(O)c1)C(=O)O                     1
2  CC(=O)OC/C=C(C)/C=C/C=C(C)/C=C/C1=C(C)CCCC1(C)C                 0.981

In plain terms, C#CCN(C)C(C)Cc1ccccc1 (stereo unspecified) has a documented normalized growth of 0.994

normalized growth in this record for C[C@@H]1CC2C3CCC4=CC(=O)C=C[C@]4(C)[C@@]3(F)[C@@H](O)C[C@]2(C)[C@@]1(O)C(=O)COP(=O)(O)O (stereo partly specified) : 0.977

get_value(item= `NC(=O)c1ccc(N)nc1` , readout=normalized growth) returns 1.02

Record `CSc1cccc(N2C(=O)CC(c3c(Cl)cccc3Cl)CC2=O)c1` . Reported normalized growth: 0.889

So for `O=C(O)CNCP(=O)(O)O` , the logged normalized growth turned out to be 1.02

What the record says about OCC(S)CS (stereo unspecified) : normalized growth is 1.02

The compound identified as CCCC1c2ccsc2CCN1C(=S)Nc1ccc(Cl)cc1Cl (stereo unspecified) registered its normalized growth at 0.897

The reported value for `Nc1ccc(S(=O)(=O)O)cc1` in terms of normalized growth is 0.976

For this compound ( C=C[C@@]1(C)CC(=O)[C@@]2(O)[C@](C)(O1)[C@@H](O)[C@@H](O)C1C(C)(C)CC[C@H](O)[C@@]12C (stereo partly specified) ), measured normalized growth is 0.992

// normalized growth value for CCC1CCC(C)N(C(=S)Nc2ccc(Br)cc2C)C1 (stereo unspecified) : 0.924

The compound listed as COc1ccccc1OCC(O)CN1CCN(CC(=O)Nc2c(C)cccc2C)CC1 (stereo unspecified) has a reported normalized growth of 0.982

normalized growth recorded for this compound, `c1ccc2[nH]c(-c3cscn3)nc2c1` , is 0.985

Looking up `O=C(O)c1cc(=O)c2c(OCC(O)COc3cccc4oc(C(=O)O)cc(=O)c34)cccc2o1` , I see its normalized growth listed as 0.998
